FYI, the data here is from ChEMBL document CHEMBL1201862.

Tested on: MDA-MB-231
Experiment: NCI tumour cell line growth inhibition, 48 h
Calls of active or inactive are those of the source. No stated cut-off is given here; in the data, active = GI50 up to about 1.1 µM and inactive = higher.
Measurement label: GI50

| Compound | Result |
| --- | --- |
| Cc1nc2cc(Cl)c(N)cc2[nH]1 | > 100 µM (inactive) |
| COc1cc(O)c2c(=O)c(OC)c(-c3ccc4c(c3)OCO4)oc2c1 | > 37.3 µM (inactive) |
| CN(C)C(=S)N/N=C(\C(=N/NC(=S)N(C)C)c1ccccn1)c1ccccn1 | 14.7 µM (inactive) |
| COc1ccc(OC)c(C[P+](c2ccccc2)(c2ccccc2)c2ccccc2)c1 | 3.27 µM (inactive) |
| N#CCCC1(CCC#N)CCc2ccccc2C1=O | > 100 µM (inactive) |

Data request, read-out GI50, for CN1C(=O)c2c(c3c4ccccc4n(C4OC(CO)C(O)C(O)C4O)c3c3[nH]c4ccccc4c23)C1=O (stereo unspecified)
1.51 µM (inactive)

Data request, read-out GI50, for O=C1CCCC1CN1CCCC1 (stereo unspecified)
15.5 µM (inactive)

Data request, read-out GI50, for CCCCCCN(CCCCCC)CCC(=O)c1ccc2cc(Br)c3ccccc3c2c1
26.7 µM (inactive)

Data request, read-out GI50, for Ic1ccc2c(c1)N(c1ccccc1)c1cc([N-]c3ccc4nc5ccc(I)cc5[n+](-c5ccccc5)c4c3)ccc1N2
23.7 µM (inactive)

Data request, read-out GI50, for CC(C)[S+]1C2=C(CC(C)(C)CC2=O)[N-]c2ccccc21 (stereo unspecified)
> 100 µM (inactive)

Data request, read-out GI50, for O=c1oc2ccccc2cc1-c1nc2ccc([N+](=O)[O-])cc2o1
> 100 µM (inactive)

* * *

Tested on: NCI-H23
Test: NCI tumour cell line growth inhibition, 48 h
Active and inactive are the calls of the source. Cut-off read from the data, not from the text of the source: active = GI50 up to about 1.1 µM and inactive = higher.
Outcome (select one): YES (active), NO (inactive)

Solved cases (3 shown):
| Compound | Class |
| --- | --- |
| CC(OCc1ccccc1)C(NC(=O)C1CSSCC(NC(=O)C(Cc2ccccc2)NC(=O)OCc2ccccc2)C(=O)NC(Cc2ccccc2)C(=O)NC(Cc2cn(C=O)c3ccccc23)C(=O)NC(CCCCNC(=O)OCc2ccccc2)C(=O)NC(C(C)OCc2ccccc2)C(=O)N1)C(N)=O (stereo not given) | NO |
| CCOC(=O)/N=c1\ss/c(=N\C(=S)N(C)C)n1-c1ccccc1 | NO |
| Cc1ccc2oc3c(c(Br)c(Br)n3C)c(=O)c2c1 | NO |

Status in this test for O=C(CC1=Nc2nnc(-c3nnc4n3C(=O)C(CC(=O)c3cccnc3)=N4)n2C1=O)c1cccnc1 ?
NO

Status in this test for Cc1ccc2c(c1)C(=O)C(C1OC(=O)c3ccccc31)C2 (stereo not given) ?
NO

Status in this test for CCN1C(=O)C(=C/C=C/c2ccc(OC)cc2)C(=O)N(CC)C1=S ?
NO

Status in this test for Brc1ccc2[nH]cc(-c3csc(-c4c[nH]c5ccc(Br)cc45)n3)c2c1 ?
NO

Status in this test for Nc1ccc2c3[nH]c4cc(N)ccc4cc-3nc2c1 ?
YES

* * *

Tested on: SN12C
Assay: NCI tumour cell line growth inhibition, 48 h
The source made the active and inactive calls. Rule as the data show it: active = GI50 up to about 1.1 µM and inactive = higher.
Outcome (select one): 1.0 = active, 0.0 = inactive

Solved cases (10 shown):
| Compound | Class |
| --- | --- |
| OC(NN=C1CCCC1)(C(F)(F)Cl)C(F)(F)Cl | 0.0 |
| CN1C(=O)c2c(c3c4ccccc4n(C4OC(CO)C(O)C(O)C4O)c3c3[nH]c4ccccc4c23)C1=O (configuration not stated) | 0.0 |
| Nc1ccc2c3[nH]c4cc(N)ccc4cc-3nc2c1 | 1.0 |
| C=CCSC1=N/C(=C\c2cccs2)C(=O)N1CC=C | 0.0 |
| CC(C)(CN1CCCCC1)C(=O)/C=C/c1ccc(/C=C/C(=O)C(C)(C)CN2CCCCC2)cc1 | 1.0 |
| N#Cc1c(C[n+]2ccccc2)c2ccccc2oc1=O | 0.0 |
| O=C1CC2SC(COCc3ccccc3)(CCN2Cc2ccccc2)C1 (configuration not stated) | 0.0 |
| Nc1ccn(C2CCC(COP(=O)(O)OCC(O)COP(=O)(O)OCC3OC(n4cc(F)c(=O)[nH]c4=O)CC3O)O2)c(=O)n1 (configuration not stated) | 1.0 |
| CC1=C(C)C(=O)OC(C(C)(O)C2(O)CCC3(O)C4CC(Cl)C5(O)C(O)C=CC(=O)C5(C)C4CCC32C)C1 (configuration not stated) | 0.0 |
| COc1ccc(/C=C\c2cc(OC)c(OC)c(OC)c2)cc1 | 1.0 |

Status in this test for COC12C=CC(CC1)C(C)(C)C2OS(C)(=O)=O (configuration not stated) ?
0.0

Status in this test for N=C(N)N/N=C/c1c(Cl)nc2n1CCS2 ?
0.0

* * *

Tested on: DMS-273
Assay: NCI tumour cell line growth inhibition, 48 h
Calls of active or inactive are those of the source. Rule as the data show it: active = GI50 up to about 1.1 µM and inactive = higher.
Outcome (select one): T for active, F for inactive

| Compound | Class |
| --- | --- |
| c1ccc2c3nc(C4CCCC4)nc-3c(NC3CCCC3)[nH]c2c1 | F |

Status in this test for Cc1cc(N(CCC#N)S(C)(=O)=O)ccc1C=O ?
F

Status in this test for CCCC/C=C/C=C/C=C/CCCCCCCC(=O)OCC(COC(=O)CCCCCCC/C=C/C1C=CC(CCCC)C(C(=O)O)C1C(=O)O)OC(=O)CCCCCCC/C=C/C=C/C=C/CCCC.OCCNCO (stereo not given) ?
F

Status in this test for COc1ccccc1C12OC(=O)C1(C)Oc1ccccc1C2=O (stereo not given) ?
F

Status in this test for COc1ccc2nc3ccccc3c(NCCN(C)CCCl)c2c1 ?
T

Status in this test for COc1ccc(OCC(=O)O)c2c1CCC(C(C)C)C2=O (stereo not given) ?
F

Status in this test for O=C(CCc1nnc(S)[nH]1)NC12CC3CC(CC(C3)C1)C2 ?
F

Status in this test for CCOC(=O)CC[C@H](NC(=O)c1nc[nH]c1[N+](=O)[O-])C(=O)OCC ?
F

Status in this test for CN(C)C(=S)/N=c1\ssc(=S)n1Cc1ccncc1 ?
F

Status in this test for CN1C(=O)c2ccccc2NC(=O)c2cnn(C)c21 ?
F

* * *

Listing: GI50 of selected compounds
Tested on: IGROV-1
Experiment: NCI tumour cell line growth inhibition, 48 h
The source made the active and inactive calls. Cut-off read from the data, not from the text of the source: active = GI50 up to about 1.1 µM and inactive = higher.

| Compound | GI50 |
| --- | --- |
| CC(C)C(Nc1ncnc2nc[nH]c12)C(=O)O (stereo not given) | > 100 µM (inactive) |

Data request, read-out GI50, for O=C(c1ccccc1)c1cc[n+](C2=C([N-]S(=O)(=O)c3ccccc3)C(=O)c3ccccc3C2=O)cc1
9.35 µM (inactive)

Data request, read-out GI50, for CCCCc1ccc(Nc2nc(OC)c3ncn(C4CC(O)C(CO)O4)c3n2)cc1 (stereo not given)
12.5 µM (inactive)

Data request, read-out GI50, for CC12CCC(C(=O)n3c1nc1ccccc13)C(C)(C)O2 (stereo not given)
> 100 µM (inactive)

Data request, read-out GI50, for OC(NN=C1CCCC1)(C(F)(F)Cl)C(F)(F)Cl
> 10 µM (inactive)

* * *

Tested on: SK-OV-3
Experiment: NCI tumour cell line growth inhibition, 48 h
Activity calls are given as the source filed them. Rule as the data show it: active = GI50 up to about 1.1 µM and inactive = higher.
Outcome (select one): active, inactive

Status in this test for Cc1ccc(NC(=O)/C(Cc2cc(=O)oc3cc(O)ccc23)=N\NC(C)(C)C)cc1C ?
inactive

Status in this test for CCCCc1c2c([n+]([O-])c3c1CCCC3)CCCC2 ?
inactive

Status in this test for N#C/C(c1nc2ccccc2[nH]1)=c1\s/c(=C/c2ccc(Cl)cc2)c(=O)n1-c1ccccc1 ?
inactive

Status in this test for COC12C=CC(CC1)C(C)(C)C2OS(C)(=O)=O (stereo not given) ?
inactive

Status in this test for CCCCCCCCCC(=O)OCC1OC(n2cc(F)c(=O)[nH]c2=O)C(NC(=O)OCc2ccccc2)C(OC(=O)CCCCCCCCC)C1O (stereo not given) ?
inactive

Status in this test for O=C(O)CCSc1nnc(COc2ccc(Cl)cc2)n1-c1ccccc1 ?
inactive

Status in this test for Cc1n[nH]c(=S)n(C)c1=S ?
inactive

Status in this test for CC1CNC(c2ccc(CN3CCC(C4CCN(Cc5ccc(C6=NC(C)CN6)cc5)CC4)CC3)cc2)=N1 (stereo not given) ?
inactive

Status in this test for C[C@@]1(O)CC[C@]2(C)C3CCCC3[C@H]12 (stereo not given in full) ?
inactive

Status in this test for O=C1CC(c2cccc([N+](=O)[O-])c2)C2(C(=O)NC(=O)NC2=O)C(c2cccc([N+](=O)[O-])c2)C1 (stereo not given) ?
inactive

Status in this test for O=C(CCc1nnc(S)[nH]1)Nc1ccccc1Cl ?
inactive

Status in this test for COc1cc([C@@H]2c3cc4c(cc3[C@@H](NC(=O)c3ccc([N+](=O)[O-])cc3)C3COC(=O)[C@@H]32)OCO4)cc(OC)c1O (stereo not given in full) ?
active

Status in this test for Clc1ccc(Nc2ncco2)cc1Cl ?
inactive

Status in this test for Nc1nc(N)c2cc(Sc3ccc4ccccc4c3)ccc2n1 ?
inactive

Status in this test for CS(=O)(=O)N(CCC#N)c1ccc(/C=C2\N=C(c3ccccc3Cl)OC2=O)cc1 ?
inactive

Status in this test for CC(=O)NC(CSC1=C2NC(=O)\C=C/C=C\C=C/C(C)C(O)CC(=O)/C(C)=C\CC(O)/C=C\C(C)C(O)C(C)C=C(C)C(=O)c3c(O)c(C)cc(c3C1=O)C2=O)C(=O)O (stereo not given) ?
inactive
